target: DNMT1 (Homo sapiens, UniProt P26358); test: Selective depletion of DNMT1 by Western blot in treated HCT116 cells; assay type: cell-based; design: Protein extracts (equivalent to 100 μg) were isolated from HCT116 cells; endogenous in cells; host or cells: HCT116; conditions: 10 μM
Sequence (P26358 whole entry): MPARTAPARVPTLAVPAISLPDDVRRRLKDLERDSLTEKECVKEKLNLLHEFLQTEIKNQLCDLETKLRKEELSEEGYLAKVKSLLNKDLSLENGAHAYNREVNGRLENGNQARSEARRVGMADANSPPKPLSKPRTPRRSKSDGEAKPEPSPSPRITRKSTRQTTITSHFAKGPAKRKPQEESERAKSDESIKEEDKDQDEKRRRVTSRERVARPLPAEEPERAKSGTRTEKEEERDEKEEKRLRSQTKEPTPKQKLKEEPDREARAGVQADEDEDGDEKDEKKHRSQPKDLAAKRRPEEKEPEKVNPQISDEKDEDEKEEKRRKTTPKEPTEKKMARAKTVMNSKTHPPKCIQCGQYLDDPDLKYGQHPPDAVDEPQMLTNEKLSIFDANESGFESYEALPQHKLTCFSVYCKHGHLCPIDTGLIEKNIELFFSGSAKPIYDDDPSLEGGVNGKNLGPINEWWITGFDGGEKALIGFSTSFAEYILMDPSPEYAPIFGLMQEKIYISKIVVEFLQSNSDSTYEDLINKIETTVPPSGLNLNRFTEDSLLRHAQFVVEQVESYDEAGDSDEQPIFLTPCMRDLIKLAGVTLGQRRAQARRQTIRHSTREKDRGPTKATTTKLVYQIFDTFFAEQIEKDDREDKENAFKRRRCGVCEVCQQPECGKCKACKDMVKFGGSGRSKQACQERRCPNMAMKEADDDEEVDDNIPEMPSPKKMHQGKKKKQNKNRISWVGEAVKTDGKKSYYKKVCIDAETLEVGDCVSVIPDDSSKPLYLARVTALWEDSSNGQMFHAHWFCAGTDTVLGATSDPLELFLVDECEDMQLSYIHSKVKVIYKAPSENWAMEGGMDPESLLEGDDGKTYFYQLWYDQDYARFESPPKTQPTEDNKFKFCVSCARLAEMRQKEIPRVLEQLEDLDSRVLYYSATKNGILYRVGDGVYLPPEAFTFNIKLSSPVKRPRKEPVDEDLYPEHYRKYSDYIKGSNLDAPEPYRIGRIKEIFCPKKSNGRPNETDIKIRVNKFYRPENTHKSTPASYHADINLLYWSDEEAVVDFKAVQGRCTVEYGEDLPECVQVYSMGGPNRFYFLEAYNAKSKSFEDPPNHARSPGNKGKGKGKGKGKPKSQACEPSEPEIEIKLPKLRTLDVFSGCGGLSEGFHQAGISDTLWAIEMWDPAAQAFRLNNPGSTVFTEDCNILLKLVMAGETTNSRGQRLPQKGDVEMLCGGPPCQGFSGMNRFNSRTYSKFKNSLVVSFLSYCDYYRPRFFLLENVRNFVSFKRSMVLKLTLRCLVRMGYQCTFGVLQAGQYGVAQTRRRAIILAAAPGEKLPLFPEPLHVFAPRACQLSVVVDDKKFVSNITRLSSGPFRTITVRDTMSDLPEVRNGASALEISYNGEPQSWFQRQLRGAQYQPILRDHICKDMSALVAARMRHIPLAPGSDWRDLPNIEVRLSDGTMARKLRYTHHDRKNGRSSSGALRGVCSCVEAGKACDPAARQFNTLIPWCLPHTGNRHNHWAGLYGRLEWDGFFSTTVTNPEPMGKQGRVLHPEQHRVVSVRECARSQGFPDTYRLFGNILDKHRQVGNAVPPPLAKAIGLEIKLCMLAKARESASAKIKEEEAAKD
# label = Met if % DNMT1 Level >= 70% else Not met

Ask: Given the entry Cl.Cl.O=C(Nc1ccc(Nc2ccncc2)cc1)c1ccc(Nc2ccnc3ccccc23)cc1 , answer whether its % DNMT1 Level meets or surpasses 70%.
Reply: Not met

Ask: Given the entry CN(C)c1ccc2c(Nc3ccc(C(=O)Nc4ccc(Nc5cc[n+](C)cc5)cc4)cc3)ccnc2c1.Cl.[Cl-] , answer whether its % DNMT1 Level meets or surpasses 70%.
Reply: Met

Ask: Given the entry CN(C)c1ccc2c(Nc3ccc(C(=O)Nc4cccc(Nc5cc[n+](C)cc5)c4)cc3)ccnc2c1.Cl.[Cl-] , answer whether its % DNMT1 Level meets or surpasses 70%.
Reply: Met

Ask: Given the entry CN(C)c1ccc2c(Nc3ccc(NC(=O)c4ccc(Nc5cc[n+](C)cc5)cc4)cc3)ccnc2c1.Cl.[Cl-] , answer whether its % DNMT1 Level meets or surpasses 70%.
Reply: Met

Ask: Given the entry C[n+]1ccc(Nc2cccc(C(=O)Nc3ccc(Nc4ccnc5ccccc45)cc3)c2)cc1.Cl.[Cl-] , answer whether its % DNMT1 Level meets or surpasses 70%.
Reply: Not met

###

Where a name gives a salt, the structure may show the parent alone.
READOUT TYPE: melting point

Ask: Give melting point for the following compound: Cc1cc(Nc2ccc(NC(=O)c3ccc(Nc4ccnc5ccc([N+](=O)[O-])cc45)cc3)cc2)nc(N)n1 (as salt: hydrochloride) [Cpd. H]
Reply: 301 to 305 °C

Ask: Give melting point for the following compound: Cc1cc(Nc2ccc(NC(=O)c3ccc(Nc4ccnc5ccc(Cl)cc45)cc3)cc2)nc(N)n1 [Cpd. LL]
Reply: 250 to 254 °C

Ask: Give melting point for the following compound: CN(C)c1ccc2c(Nc3ccc(NC(=O)c4cccc(Nc5cc[n+](C)cc5)c4)cc3)ccnc2c1 [Cpd. CC]
Reply: 188 °C (dec.)

Ask: Give melting point for the following compound: C[n+]1ccc(Nc2cccc(C(=O)Nc3ccc(Nc4ccnc5ccc(N)cc45)cc3)c2)cc1 [Cpd. M]
Reply: > 310 °C

Ask: Give melting point for the following compound: Cc1cc(Nc2cccc(C(=O)Nc3ccc(Nc4ccnc5ccc(N(C)C)cc45)cc3)c2)nc(N)n1 (as salt: chloride) [Cpd. EE]
Reply: > 300 °C

Ask: Give melting point for the following compound: CN(C)c1ccc2nccc(Nc3ccc(C(=O)Nc4ccc(Nc5cc[n+](C)cc5)cc4)cc3)c2c1 [Cpd. O]
Reply: 242 to 246 °C

Ask: Give melting point for the following compound: CN(C)c1ccc2nccc(Nc3ccc(NC(=O)c4ccc(Nc5cc[n+](C)cc5)cc4)cc3)c2c1 [Cpd. OO2]
Reply: 156 °C (dec.)

###

Provide the recorded % DNMT1 protein level remaining at 5 µM for the entries that follow.
target: DNMT1 (Homo sapiens, UniProt P26358); test: Selective depletion of DNMT1 by Western blot in treated HCT116 cells; type: cell-based; set-up: Protein extracts (equivalent to 100 μg) were isolated from HCT116 cells; endogenous in cells; host or cells: HCT116; conditions: HCT-116, 5 μM
Counter-ions that a name gives are not always drawn.
Report the value in % with no unit label.

Ask: Give % DNMT1 protein level remaining at 5 µM for the following compound: CN(C)c1ccc2nccc(Nc3ccc(C(=O)Nc4cccc(Nc5cc[n+](C)cc5)c4)cc3)c2c1
Reply: 219

Ask: Give % DNMT1 protein level remaining at 5 µM for the following compound: C[n+]1ccc(Nc2cccc(NC(=O)c3ccc(Nc4ccnc5ccc([N+](=O)[O-])cc45)cc3)c2)cc1
Reply: 145

Ask: Give % DNMT1 protein level remaining at 5 µM for the following compound: Nc1cc(Nc2cccc(C(=O)Nc3ccc(Nc4ccnc5ccccc45)cc3)c2)nc(N)n1 [Cpd. FF2, dihydrochloride]
Reply: 85
